Taken from paper PMC10878344.

target_under_test: eeAChE (Electrophorus electricus, UniProt O42275)
Sequence (O42275 24-633): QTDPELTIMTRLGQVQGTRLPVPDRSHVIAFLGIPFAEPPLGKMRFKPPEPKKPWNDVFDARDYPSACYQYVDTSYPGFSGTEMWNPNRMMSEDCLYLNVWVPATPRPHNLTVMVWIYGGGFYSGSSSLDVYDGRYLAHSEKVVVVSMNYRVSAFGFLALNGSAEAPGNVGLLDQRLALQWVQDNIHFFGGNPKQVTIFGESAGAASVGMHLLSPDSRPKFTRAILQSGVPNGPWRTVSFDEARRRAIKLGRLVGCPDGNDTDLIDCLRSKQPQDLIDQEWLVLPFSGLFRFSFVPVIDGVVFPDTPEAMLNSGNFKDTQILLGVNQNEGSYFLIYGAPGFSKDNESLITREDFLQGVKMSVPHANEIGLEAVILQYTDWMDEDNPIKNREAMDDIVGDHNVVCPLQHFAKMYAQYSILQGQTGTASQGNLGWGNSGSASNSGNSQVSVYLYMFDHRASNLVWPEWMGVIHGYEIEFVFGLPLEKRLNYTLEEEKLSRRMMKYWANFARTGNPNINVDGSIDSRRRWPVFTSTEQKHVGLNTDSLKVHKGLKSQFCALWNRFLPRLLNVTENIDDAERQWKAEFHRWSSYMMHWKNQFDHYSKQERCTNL
As shown below, each of these molecules has a reported IC50 value.

[
  {
    "compound": "Cc1cc(=O)c(OCc2ccccc2)c(/C=C/c2cccc(OC(=O)N3CCC(Cc4ccccc4)CC3)c2)o1",
    "IC50": "> 20 µM"
  },
  {
    "compound": "Cc1cc(=O)c(OCc2ccccc2)c(-c2ccc(-c3cccc(OC(=O)N4CCCCC4)c3)cc2)o1",
    "IC50": "> 20 µM"
  },
  {
    "compound": "Cc1cc(=O)c(OCc2ccccc2)c(-c2ccc3ccc(OC(=O)N4CCCCC4)cc3c2)o1",
    "IC50": "> 20 µM"
  },
  {
    "compound": "Cc1cc(=O)c(OCc2ccccc2)c(/C=C/c2cccc(OCC(=O)N3CCCCC3)c2)o1",
    "IC50": "> 20 µM"
  },
  {
    "compound": "CCN(CC)C(=O)Oc1cccc(/C=C/c2oc(C)cc(=O)c2OCc2ccccc2)c1",
    "IC50": "> 20 µM"
  },
  {
    "compound": "Cc1cc(=O)c(OCc2ccccc2)c(/C=C/c2cccc(OC(=O)N(C(C)C)C(C)C)c2)o1",
    "IC50": "> 20 µM"
  },
  {
    "compound": "Cc1cc(=O)c(OCc2ccc3ccccc3c2)c(/C=C/c2cccc(OC(=O)N3CCCCC3)c2)o1",
    "IC50": "> 20 µM"
  },
  {
    "compound": "Cc1cc(=O)c(OCc2ccccc2)c(/C=C/c2cccc(OC(=O)N3CCN(Cc4ccccc4)CC3)c2)o1",
    "IC50": "> 20 µM"
  },
  {
    "compound": "Cc1cc(=O)c(OCc2ccccc2)c(/C=C/c2cccc(OC(=O)N3CCOCC3)c2)o1",
    "IC50": "> 20 µM"
  }
]
